The reported numbers originate from patent US9402842B2.

tested on: SN12C; experiment: NCI screen cytotoxicity, renal SN12C; settings: read-out: Cytotoxicity (GI50 in μM) renal SN12C; 50% growth inhibition
Counter-ions that a name gives are not always drawn.
readout.kind: GI50 (µM)
Write the value in µM as a bare number.

CCOC(=O)CNc1ccc2c3c(n(CCCN)c(=O)c2c1)-c1ccccc1C3=O [Compound 40 of (B), Hydrochloride]
1.75

Incoming: Look up GI50: NCCCn1c2c(c3ccc(N)cc3c1=O)C(=O)c1ccccc1-2
Outgoing: 0.23

----------
biological target: recombinant human Tdp1 (Homo sapiens (Human)); experiment: Gel-based assay measuring the inhibition of recombinant Tdp1; format: biochemical; conditions: determined by duplicate; read-out: Tdp1 (semiquantitative IC50 scale)
Sequence (Q9NUW8 whole entry): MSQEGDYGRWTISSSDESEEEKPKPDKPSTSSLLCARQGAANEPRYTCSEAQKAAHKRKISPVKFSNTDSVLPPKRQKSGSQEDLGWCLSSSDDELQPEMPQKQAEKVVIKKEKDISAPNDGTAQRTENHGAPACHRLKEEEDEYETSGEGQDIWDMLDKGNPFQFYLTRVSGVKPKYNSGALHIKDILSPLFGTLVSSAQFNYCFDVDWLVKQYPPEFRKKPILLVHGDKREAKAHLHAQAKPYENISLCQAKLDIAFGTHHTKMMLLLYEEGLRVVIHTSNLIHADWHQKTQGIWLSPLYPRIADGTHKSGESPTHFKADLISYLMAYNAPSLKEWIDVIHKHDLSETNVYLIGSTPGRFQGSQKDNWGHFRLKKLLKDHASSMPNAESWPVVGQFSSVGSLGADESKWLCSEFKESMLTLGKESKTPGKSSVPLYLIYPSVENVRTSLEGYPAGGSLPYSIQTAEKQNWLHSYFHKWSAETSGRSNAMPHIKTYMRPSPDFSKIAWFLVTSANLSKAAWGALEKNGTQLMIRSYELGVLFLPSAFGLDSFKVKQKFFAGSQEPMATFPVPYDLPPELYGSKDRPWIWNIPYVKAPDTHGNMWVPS
pIC50: −log10 of the molar value. Where a name gives a salt, the structure may show the parent alone.
The reader will find reported pIC50 values listed item by item below.

Look over these answered cases.
COC(=O)CCC(=O)Nc1ccc2c3c(n(CCCNC(=O)OC(C)(C)C)c(=O)c2c1)-c1ccccc1C3=O
< 3.95
COC(=O)CC(=O)Nc1ccc2c3c(n(CCCNC(=O)OC(C)(C)C)c(=O)c2c1)-c1ccccc1C3=O
< 3.95
COC(=O)CCCCC(=O)Nc1ccc2c3c(n(CCCN)c(=O)c2c1)-c1ccccc1C3=O
3.95 to 4.43
N#Cc1ccc2c3c(n(CCCn4ccnc4)c(=O)c2c1)-c1ccccc1C3=O
< 3.95
COc1ccc2c(c1)C(=O)c1c-2n(CCCN)c(=O)c2cc(N)ccc12 [Compound 89 of (B), Dihydrochloride]
4.92 to 6.00
COC(=O)CCCC(=O)Nc1ccc2c3c(n(CCCNC(=O)OC(C)(C)C)c(=O)c2c1)-c1ccccc1C3=O
< 3.95

Attention now turns to another entry.
Incoming: Look up pIC50: Cl.NCCCn1c2c(c3ccc(NCC(=O)O)cc3c1=O)C(=O)c1ccccc1-2 [Compound 43 of (B), Hydrochloride]
Outgoing: 4.92 to 6.00

----------
tested on: OVCAR-3; experiment: NCI screen cytotoxicity, ovarian OVCAR-3; details: read-out: Cytotoxicity (GI50 in μM) ovarian OVCAR-3; 50% growth inhibition
Structures can show the parent of a compound that is named as a salt.
readout.kind: GI50 (µM)
Write the value in µM as a bare number.

Look over these answered cases.
COc1ccc2c(c1)-c1c(c3ccc([N+](=O)[O-])cc3c(=O)n1CCCn1ccnc1)C2=O
0.03
Cl.NCCCn1c2c(c3ccc(NCC(=O)O)cc3c1=O)C(=O)c1ccccc1-2 [Compound 43 of (B), Hydrochloride]
1.6
NCCCn1c2c(c3ccc(N)cc3c1=O)C(=O)c1ccccc1-2
0.13
COc1ccc2c(c1)-c1c(c3ccc([N+](=O)[O-])cc3c(=O)n1CCCN)C2=O.Cl [Compound 51 of (B), Hydrochloride]
0.54
O=C1c2ccccc2-c2c1c1ccc([N+](=O)[O-])cc1c(=O)n2CCCO
0.87

Incoming: Look up GI50: CCOC(=O)CNc1ccc2c3c(n(CCCN)c(=O)c2c1)-c1ccccc1C3=O [Compound 40 of (B), Hydrochloride]
Outgoing: 3.12

----------
molecular target: recombinant human Tdp1 (Homo sapiens (Human)); assay: Gel-based assay measuring the inhibition of recombinant Tdp1; format: biochemical; settings: determined by duplicate; read-out: Tdp1 (semiquantitative IC50 scale)
The reader will find reported IC50 values listed item by item below.

COC(=O)CCCC(=O)Nc1ccc2c3c(n(CCCN)c(=O)c2c1)-c1ccccc1C3=O [Compound 25 of (B)]
37 to 111 µM
CC(C)(C)OC(=O)NCCCn1c2c(c3ccc(NC(=O)CCC(=O)O)cc3c1=O)C(=O)c1ccccc1-2 [Compound 29 of (B)]
37 to 111 µM
CC(C)(C)OC(=O)NCCCn1c2c(c3ccc(NC(=O)CCCC(=O)O)cc3c1=O)C(=O)c1ccccc1-2 [Compound 30 of (B)]
> 111 µM

Attention now turns to another entry.
Incoming: Look up IC50: N#Cc1ccc2c3c(n(CCCN4CCOCC4)c(=O)c2c1)-c1ccccc1C3=O [Compound 73]
Outgoing: > 111 µM
